- ASSAY NOTES: protein stability index of a GFP-peptide fusion (yeast GPS) (PSI 1-4); higher = more stable; sorted into four equal gates, so the index is relative within each strain
- APPLIED CONDITIONS: pdr5∆
Recorded protein stability index, one value per entry.
MEASUREMENT NAME: protein stability index

- GAIDEALEEAKLSDNIS [YDL116W/NUP84]: 3.25
- QGPVKNTQLHGPSATDP [RGR1]: 3.06
- PANAEPQAVTITSIMDD [ITC1]: 2.83
- SQTQLENANAANNGAAF [MED2]: 2.75
- SFLKEGDLLNAEVQSLF [RRP4]: 3.03
- SFDAVSDSIELLKQYPK [YJR042W/NUP85]: 3.16
- TEKKFTKEQYAAESKKY [RPL5]: 3.07
- VAPVSEIVNMVPSHVPQ [SIR2]: 2.96
- NKYQIKKAVKELYEVDV [RPL25]: 3.15
- ANVNASAMPAPYMPYYY [DSN1]: 2.88
- KLLKQPKFDVGALMALH [RPS1A]: 2.16
- ICDPVHKHREARGLTAT [RPL15A]: 2.81
- ADQEQAKLIRSAIEHTT [RPO21]: 2.96
- KSDDDDHTVDEIDHVEY [SRB8]: 2.46

====

- ASSAY NOTES: protein stability index of a GFP-peptide fusion (yeast GPS) (PSI 1-4); higher = more stable; sorted into four equal gates, so the index is relative within each strain
- APPLIED CONDITIONS: doa10∆
Recorded protein stability index, one value per entry.
MEASUREMENT NAME: protein stability index

* SNGSGIVAAGGGSGAAT [CSL4] | 3.53
* GKELDSLDLNNLELGGL [PGD1] | 3.08
* LLHVAVSDSNDDVRRAA [RPN2] | 3.01
* YVNYEISTAKAWGALIT [YML103C/NUP188] | 1.32
* LGEEHPLQVARCTKIIK [RPT1] | 2.18
* NANDETTAVEDEDDDLD [RPB4] | 3.47
* GRLRNKSHKQTIVTGGG [RPP1] | 2.57
* GLFDSFTNGVLAVTNLL [YML031W/NDC1] | 2.64
* IQTKEQVSINSNKILVY [YIL149C/MLP2] | 2.21
* ALNGIDINTVNTNLMNG [GRR1] | 3.29
* QIEGPFLIIVPKSTLDN [ISW2] | 2.88
* VNEMNDQLAQELKDLET [NNF1] | 2.9
* LHKEQWQSGLKMYDYEE [RPN11] | 2.47
* AHLYMLEPSGSYWGYKG [PRE10] | 1.66

====

Recorded protein stability index, one value per entry.
- ASSAY NOTES: protein stability index of a GFP-peptide fusion (yeast GPS) (PSI 1-4); higher = more stable; sorted into four equal gates, so the index is relative within each strain
- APPLIED CONDITIONS: doa10∆
MEASUREMENT NAME: protein stability index

• IQLIKILNSHFDALRSL [YJL041W/NSP1] = 2.54
• SFLSKHALYLAPSGIRM [SSN2] = 2.12
• QSLLSLYFEIIHGVLKN [FAS2] = 2.37
• SNVYLSLVNSYIIDSPQ [COB] = 1.76
• FGEWAGMTKSNIYNFSP [BRR2] = 2.94
• QQLAYDLSISALLGDKI [RPN9] = 2.4
• VESVCQKLDILVAKLKK [SMC4] = 1.9
• EKIKDIHNTKLPAYSGE [POP1] = 3.09
• IETVMTQEQFVKRRRDM [SRB4] = 2.94
• HKHREARGLTATGKKSR [RPL15A] = 3.58
• TNNKKLLEKANNQQRLL [SMC3] = 2.01
• KGPAIDELSSKELVECH [NNF1] = 3.04
• AVDAKQLAQIRQFLKAN [YML103C/NUP188] = 2.58
• LQIHSRKMTTDDDINWQ [RPT5] = 3.09

====

- ASSAY NOTES: protein stability index of a GFP-peptide fusion (yeast GPS) (PSI 1-4); higher = more stable; sorted into four equal gates, so the index is relative within each strain
- APPLIED CONDITIONS: san1∆
MEASUREMENT NAME: protein stability index

• PVSTASYRLLPQINILQ [RPC40] = 1.63
• DTDNECVAAWGVCNHAF [HRT1] = 3.33
• PALVGKLRGDLREAPAD [SNF6] = 2.24
• KILGKGRIPNVPVIVKA [RPL28] = 2.37
• QANSNLTLLERKWVIFI [NUT1] = 1.67
• SFQKKSNDKVVEWINPS [ISW2] = 3.1
• RYPMNLLEFIIDEIAYL [ECM29] = 2.75
• DNDGFSFLMRQFTRFFL [ECM29] = 1.87

====

- ASSAY NOTES: protein stability index of a GFP-peptide fusion (yeast GPS) (PSI 1-4); higher = more stable; sorted into four equal gates, so the index is relative within each strain
- APPLIED CONDITIONS: san1∆
Recorded protein stability index, one value per entry.
MEASUREMENT NAME: protein stability index

• KIKDVQQQIESNEEQRN [SMC3] = 3.18
• KQQGVGLPTDAYVAIEQ [RPN8] = 2.89
• VDIYSLPLISTDVLEIS [YMR129W/POM152] = 2.43
• PSEFHCLQDALDAIDDF [SSN2] = 3.12
• QVPDSLDDQIFVCEKSI [RPN6] = 2.95
• KSSELELQKLVHDLNKY [SMC2] = 3.36
• MAREHAPSIIFMDEIDS [RPT6] = 2.54
• CAYTGTGDVLLIQDLLH [RPN1] = 2.75
• SIWQVKDQLPDLESMGL [MED7] = 2.93
• NKNGNAVCSTATVVSTN [PGD1] = 2.3
• ISVTRQVVLGGTSKYLI [SMC2] = 2.79
• DSEIEISSEKLLTLTNA [RPP1A] = 2.93
• CRDSDDHKRFIVFHNEF [DIS3] = 2.33
• SHEERIEAIDEYNKPNS [ISW2] = 1.84
• PLKFKLGPLSYQNMAFI [YJR042W/NUP85] = 2.58
• KILITYGSSPKLLATST [SRB8] = 1.48
• MQKHGYIGEFEYIDDHR [RPS22A] = 2.93
• DMPSLRLIDLSGCENIT [GRR1] = 2.45
• QQPHYIQRTRERKKSIG [DSN1] = 2.63
• SQSACREMALCRELHNK [SSN3] = 2.55
• PLLLVGLDKFSNIDIRV [RPS16A] = 1.74
• IPSKNTPDASKPSFSFG [YLR335W/NUP2] = 2.44
• IRNVIMSASNANDFQLT [SRB8] = 2.24
• RKVEKEKNEKEREIKRR [UBP6] = 3.09
• ILSLIEEAAGTKMFEDR [SMC2] = 3.19
• WADNYERKEQEEKEKEQ [BRN1] = 3.49
• PTNCPLRQFKTCPVEVI [BRR2] = 3.33
• TYKYFEVILVDPQHKAI [RPL15A] = 2.5
• QYATVSKTHKTVSRAYG [RPL34A] = 2.41
• IRPLSKPMTAYARADTH [RRP6] = 2.8

====

- ASSAY NOTES: protein stability index of a GFP-peptide fusion (yeast GPS) (PSI 1-4); higher = more stable; sorted into four equal gates, so the index is relative within each strain
- APPLIED CONDITIONS: san1∆
MEASUREMENT NAME: protein stability index

- YSKSFEQFKMVSMITDH [POP1]: 1.62
- VLKSHSNDFEEGSTIRY [YMR129W/POM152]: 2.93
- GSVLLTLLNFVSNNVLR [ECM29]: 1.67
- SVWKPIAAIIGRLNTLV [IRR1]: 2.04
- DATRVFVNGVWHGVHRN [RPB2]: 3.28
- LKLLAKSHVLLATPVQF [BRR2]: 1.36
- RPKPVSPPCYIIDHIPG [SNF5]: 2.28
- GSSRIIASDGSECIVSI [RRP42]: 3.11
- VHCRISCQIAQPYEDRP [RRP45]: 1.52
- SKPAFSFGAKSDEKKDG [YJL041W/NSP1]: 3.25
- GIPTDKGPRFRKLTSQE [PRE8]: 3.01
- LTPIQKKIMDETPSRLL [ITC1]: 3.16
- EEISFSLSEGCDILVAT [PRP28]: 2.72
- QAQLRIDDKTQNDELTM [DIS3]: 2.5

====

- ASSAY NOTES: protein stability index of a GFP-peptide fusion (yeast GPS) (PSI 1-4); higher = more stable; sorted into four equal gates, so the index is relative within each strain
- APPLIED CONDITIONS: pdr5∆
Mark not met for protein stability index values under 3, and met for everything at or above.

* QSALSQIIRLFYSKNRL [ISW2] | not met
* DYPFTQLGYIENSFYKK [POP1] | met
* DVQARRQFVSNVRSVIR [RPP1] | not met
* AAKGSSTSYAIKKKDEL [RPS5] | not met
* VDAGIALNSMCASIPIA [RRP46] | not met
* DLSADKPTSPFIDSICK [SRB8] | not met
* TYAAEIAHNISAKNRVV [RPL32] | not met
* INGWKFESLPLKSAENS [SWP82] | met
* TKRESLNARMFLKYYGA [SIR2] | not met
* SPTENGVFDPASYSKYL [RPL22B] | met
* NIVSDAGANDTSNNETN [GRR1] | not met
* ELADLPKLKRIGLVKCT [GRR1] | not met
* KIAGIEGHLAEIRAKEY [SRB2] | met
* QFEVSDDEKNDKQARKQ [SNF2] | met
* SFQKKSNDKVVEWINPS [ISW2] | met
* MSIGTGSFKVVKGTNIS [RPO31] | not met
* EEARRKHVSGKILGFVY [RPS22A] | not met
* ELTDKLSALNSEISSLK [SMC1] | not met
* SLSAYNLTDEGYQWGEE [PRP8] | met
* VPKEGLFYFDSSFRPCP [BRR2] | met
* EEQKSSDTSKPAFTFGA [YJL041W/NSP1] | met
* SSTDEESWFKALAGSEI [FAS1] | met
* ERDSYKLLASTEENKAN [YIL149C/MLP2] | not met
* FQAHEITSFLLSKMENV [NAS6] | not met
* LNRQNDITDGKDYHTLA [RPS18A] | met
* DSLSVPKVSAGDSGISP [SIR4] | met
* HPVSLISFAIYSALNST [RRP42] | not met
* FGLGYGDVGKNHITEFP [RPC31] | met
* AKKTIQNPLNKSQNTAL [SIR4] | met
* ACLGNDGILRLYDALEP [YGL100W/SEH1] | not met
* SLGFLQQSNKLHCCIQL [RPN3] | not met
* DILAKLFSLEKPNLNYF [SWI1] | not met
* SSDALSKEKANFLETIA [SIR4] | not met
* DNVSKNALDKLRNNLNS [YCG1] | met
* TVLESLGRLNKLRKIAI [LIN1] | not met
* LTKFRQKLMQLVVLTDV [RGR1] | not met
* HGIKDIPIGHVHVIHFQ [AAR2] | not met
* ANEDEEEQLDALECRLA [CSN12] | not met
* MPQSFTSIARIGDYILK [QCR7] | met
* VDPARRQILFKYPMYMQ [MED6] | not met
* ERQMNFLTNELIRLQME [SWI3] | met
* NDQVEKDAEDETSSDGS [RPN1] | not met
* SVVLTLQAFGESESTTN [RPB3] | not met
* SVQLPDMAKLKKMMNTS [SWI3] | not met
* IDVTFTKVNNQLIKVAV [RPL9A] | not met
* QALRVLRLKPGRKYTTL [RPL16B] | not met
* DIIWLQRDLGLYVVGLF [RRP6] | not met
* LNVAEIITSGRDTREVL [ARP9] | met
* FPWLNAIKYRPTSVKLL [POP3] | not met
* PDRHVIFLAERRILPKP [RPS7B] | not met
* GDFLDFQVHERLAPLIK [ARP7] | met
